# Tested System: T1, A56-C-His (recombinant protein A56 with C-terminal His tag, produced in HEK293F cells) (vaccinia virus, UniProt P08714 17-279)
# T1 chain: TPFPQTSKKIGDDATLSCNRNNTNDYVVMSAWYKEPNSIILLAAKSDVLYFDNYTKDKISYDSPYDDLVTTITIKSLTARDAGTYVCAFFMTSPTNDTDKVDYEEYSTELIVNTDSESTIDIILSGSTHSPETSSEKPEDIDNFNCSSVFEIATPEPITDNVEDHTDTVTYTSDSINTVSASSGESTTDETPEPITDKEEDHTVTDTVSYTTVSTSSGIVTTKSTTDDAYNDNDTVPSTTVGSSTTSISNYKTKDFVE
pKd: −log10 of the molar value.
Quantity Name: pKd

[[record]]
binder = "anti-A56 antibody Ab16 (antibody, V domains shown, also called SA2041; A56-02B08) VH: QVQLQQSGPGLVKPSQTLSLTCAISGDSVSSNSAAWNWIRQSPSRGLEWLGRTYYRSKWYNDYAVSVKSRITINPDTSKNQFSLQLNSVTAVDTAVYYCAKSYAGPISYYYYGLDVWGQGTTVTVSS VL: QSALTQPASVSGSPGQSVTISCTGTSSDIGRYNLVSWYQQHPGKAPKLMIYGGSKRPSGVSNRFSGSNSDNTASLTISGLRAEDEADYYCSSYASSSTPYVFGTGTKVTVL"
quantity_name = "pKd"
recorded_result = 8.64

[[record]]
binder = "anti-A56 antibody Ab19 (antibody, V domains shown, also called SA2044; A56-02C07) VH: QVQLVESGAEVRRPGSSVKVSCKTSGVTFSGYVLSWVRQAPGHGLEWMGRIIPLIDVENYAREFQGRMKITADKSTNTVYMELNNLRSEDTAVYYCAKSVVRGLDYYYYGFDVWGQGTTVTVSS VL: SYELTQPPSLSVAPGKTARITCGGNNIGSKSVHWYQQKPGQAPRLVTYYDGNRPSGIPERFSGSNSGNTATLIISRVEAGDEADYYCQVWDSSSDQGVFGTGTKVTVL"
quantity_name = "pKd"
recorded_result = 9.36

[[record]]
binder = "anti-A56 antibody Ab13 (antibody, V domains shown, also called SA2038; A56-02A02) VH: QMQLVESGAEVKKTGSSVKVSCKASGDTLTYRFLHWVRQAPGQAPEWMGWITPFNDNTNYAQKFQDRVTITRDRSMSTAYMELSSLRSEDTAVYYCATGGGNNYYGMEVWGQGTPITVSS VL: SYELTQPLSLSVSPGQTASITCSGDKLGDKFTSWYQQQPGQSPVLVIYQDAKRPSGIPERFSGSNSGSTATLTISGTQSMDEADYYCQAWDSSSVVFGGGTKLTVL"
quantity_name = "pKd"
recorded_result = 9.13

[[record]]
binder = "anti-A56 antibody Ab18 (antibody, V domains shown, also called SA2043; A56-02C06) VH: QVQLVESGGGLVQPGKSLRLSCAASGFTFSTYGMTWVRQAPGKGLEWVSGISGGGSSTNYADSVKGRFIISRDNSNNTLYLQMNSLRAEDTAVYYCARWGVMLSFDYWGQGTPVTVSS VL: DIQMTQSPSTLPASVGDRVTITCRASYSVSPWLAWYQQKPGKAPKLLIYKASTLESGVPSRFSGSGSGTEFTLTISSLQPDDFATYYCQQFNSYMMYTFGQGTKLEIK"
quantity_name = "pKd"
recorded_result = 9.71

